Assayed target: hCRTH2 receptor (Homo sapiens)
Construct: expressed in transfected cells; host or cells: clonal HEK 293 cell line (membrane preparation)
Sequence (Q9Y5Y4 whole entry): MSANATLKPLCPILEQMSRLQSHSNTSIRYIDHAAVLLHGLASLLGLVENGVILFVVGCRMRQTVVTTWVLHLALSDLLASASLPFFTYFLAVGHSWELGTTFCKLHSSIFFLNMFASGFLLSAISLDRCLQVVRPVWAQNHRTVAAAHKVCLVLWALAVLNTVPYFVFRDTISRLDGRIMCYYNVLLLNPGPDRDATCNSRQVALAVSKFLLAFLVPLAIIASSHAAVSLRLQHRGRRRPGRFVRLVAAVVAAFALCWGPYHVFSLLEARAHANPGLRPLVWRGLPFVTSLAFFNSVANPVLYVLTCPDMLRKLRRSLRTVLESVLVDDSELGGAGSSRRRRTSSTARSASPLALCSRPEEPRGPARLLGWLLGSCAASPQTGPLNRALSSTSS
Assay explanation: hCRTH2 receptor membranes radioligand binding assay ({3H}-PGD2)
Run conditions: {3H}-PGD2 2.5 nM, membranes of HEK 293 cells expressing recombinant hCRTH2 receptor; read-out: hCRTH2 Bdg IC50
pIC50 listing for selected compounds.
FYI, pIC50 means -log10 of a concentration in mol per litre.

Solved cases (5 shown):
In: // returns reported pIC50 for input CCCCNC(=O)N[C@H]1CCc2c(c3ccccc3n2CC(=O)O)C1
Out: 6.05

In: Return reported pIC50; argument: O=C(O)Cn1c2c(c3cc(F)ccc31)C[C@@H](NC(=O)c1cc3ccccc3[nH]1)CC2
Out: 6.08

In: Which pIC50 value belongs to O=C(O)Cn1c2c(c3ccccc31)C[C@H](NC(=O)Nc1cccc3ccccc13)CC2 ?
Out: 6.82

In: Recorded pIC50 of CC(C)(C)OC(=O)Nc1cccc(CCC(=O)N[C@H]2CCc3c(c4cc(F)ccc4n3CC(=O)O)C2)c1 , please.
Out: 7.03

In: Which pIC50 is reported for this compound? COCCN(C(=O)CCc1ccccc1OC)[C@H]1CCc2c(c3cc(F)ccc3n2CC(=O)O)C1
Out: 8.22

Others:
In: I would be grateful if you could share the reported pIC50 for O=C(O)Cn1c2c(c3ccccc31)C[C@H](NC(=O)CCC1CCCC1)CC2 .
Out: 6.40

In: What value of measured pIC50 is listed for O=C(O)Cn1c2c(c3cc(F)ccc31)C[C@@H](NC(=O)C1Cc3ccccc3N1)CC2 (stereo partly drawn) ?
Out: 7.96

In: Recorded pIC50 of CC(C)COC(=O)N[C@H]1CCc2c(c3ccccc3n2CC(=O)O)C1 , please.
Out: 7.08

In: Look up pIC50 for this compound: CS(=O)(=O)c1ccc(CCC(=O)N[C@H]2CCc3c(c4cc(F)ccc4n3CC(=O)O)C2)cc1
Out: 7.14

----------
Assayed target: hCRTH2 receptor (Homo sapiens)
Assay explanation: hCRTH2 receptor membranes radioligand binding assay ({3H}-PGD2)
Run conditions: {3H}-PGD2 2.5 nM, membranes of HEK 293 cells expressing recombinant hCRTH2 receptor; read-out: hCRTH2 Bdg IC50
Listing of entries alongside the reported pIC50.
By convention, pIC50 is the negative base-10 log of a molar concentration.

Worked cases, pIC50 given:
In: Fill in: pIC50 of COc1cccc2c1CC(C(=O)N[C@H]1CCc3c(c4cc(F)ccc4n3CC(=O)O)C1)CC2 (mixture of isomers) is ___
Out: 7.74

In: Which pIC50 value belongs to CCN(C(=O)CCc1ccccc1)[C@H]1CCc2c(c3cc(F)ccc3n2CC(=O)O)C1 ?
Out: 7.80

In: # lookup: pIC50 of O=C(O)Cn1c2c(c3ccccc31)C[C@@H](NC(=O)OCCOCc1ccccc1)CC2
Out: 6.93

In: Requested read-out: pIC50. Entry: O=C(O)Cn1c2c(c3ccccc31)C[C@H](NC(=O)Cc1cccs1)CC2
Out: 6.53

Next:
In: Bench note: what pIC50 did O=C(O)Cn1c2c(c3cc(F)ccc31)C[C@H](NC(=O)CCc1cccc(Cl)c1)CC2 show?
Out: 7.41
